Recorded inhibition at 2500 µM, one value per entry.
Molecular target: cystine/glutamate transporter (Mus musculus, UniProt Q9WTR6)
Sequence (Q9WTR6 1-502): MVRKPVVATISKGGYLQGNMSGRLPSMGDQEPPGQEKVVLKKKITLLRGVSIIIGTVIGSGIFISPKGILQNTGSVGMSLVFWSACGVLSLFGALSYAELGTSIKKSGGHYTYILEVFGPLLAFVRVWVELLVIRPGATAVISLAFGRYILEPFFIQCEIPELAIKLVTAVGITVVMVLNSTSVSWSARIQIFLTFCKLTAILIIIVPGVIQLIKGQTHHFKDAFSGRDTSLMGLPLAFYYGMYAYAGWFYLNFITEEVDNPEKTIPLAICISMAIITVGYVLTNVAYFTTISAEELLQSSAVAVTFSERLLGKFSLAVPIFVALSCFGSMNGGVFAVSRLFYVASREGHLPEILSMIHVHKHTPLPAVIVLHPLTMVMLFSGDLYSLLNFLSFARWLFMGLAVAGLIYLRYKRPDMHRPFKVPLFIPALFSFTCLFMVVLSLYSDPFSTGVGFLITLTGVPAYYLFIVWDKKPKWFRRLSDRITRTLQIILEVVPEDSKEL
Sequence (P10852 1-526 partner): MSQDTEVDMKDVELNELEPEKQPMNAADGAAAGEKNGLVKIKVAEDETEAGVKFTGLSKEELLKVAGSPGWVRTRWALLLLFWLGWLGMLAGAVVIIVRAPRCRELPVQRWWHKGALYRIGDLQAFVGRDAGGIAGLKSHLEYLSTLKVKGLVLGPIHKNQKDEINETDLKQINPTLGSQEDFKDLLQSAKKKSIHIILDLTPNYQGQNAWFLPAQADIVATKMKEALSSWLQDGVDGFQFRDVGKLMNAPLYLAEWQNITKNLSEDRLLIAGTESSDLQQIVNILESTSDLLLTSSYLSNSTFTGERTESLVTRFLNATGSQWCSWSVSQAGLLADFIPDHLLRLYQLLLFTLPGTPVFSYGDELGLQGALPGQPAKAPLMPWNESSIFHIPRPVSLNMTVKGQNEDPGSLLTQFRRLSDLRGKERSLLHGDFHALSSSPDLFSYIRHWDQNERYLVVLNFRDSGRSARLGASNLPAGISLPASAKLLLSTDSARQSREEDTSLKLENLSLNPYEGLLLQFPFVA
Experiment: Screen of unlabeled compounds for competition with 3H-L-ASU uptake (Example 3)
Format: cell-based
Set-up: endogenous in cells
Details: unlabeled competitor at high concentration (2.5 mM); read-out: inhibition of ^3H-L-ASU uptake

N[C@@H](CCC(=O)NCC(=O)O)C(=O)O [γ-glutamyl-glycine] | < 45%
N[C@@H](CCCC(=O)O)C(=O)O [L-AAA, L-aminoadipic acid] | > 90%
O=C(O)CCCCCCC(=O)O [suberic acid] | < 45%

Next molecule, please.
Given the entry N[C@H](CCC[C@H](N)C(=O)O)C(=O)O [DiAPA, diaminopimelic acid] , report its measured inhibition at 2500 µM.
< 45%

---

Recorded IC50, one value per entry.
Target: cystine/glutamate transporter (Mus musculus)
Assay: cell-based
Report the value in µM with no unit label.

Recorded results for 2 molecules are shown here.
N[C@@H](CCCCCC(=O)O)C(=O)O | 2.9
N[C@@H](CCCC(=O)O)C(=O)O | 23.9

Next molecule, please.
Given the entry `N[C@H](CCCCCC(=O)O)C(=O)O` , report its measured IC50.
36.2
